Target: CA IX (Homo sapiens)
Experiment: CA-catalysed CO2 hydration stopped-flow inhibition assay, CA IX
Type: biochemical
Settings: mean from 3 assays, cells/sentences stated in nM
test-readout: Ki (nM)

Record excerpt, results attached:
compound	Ki / nM
COc1ccc2cc(C(=O)Nc3ccc(S(N)(=O)=O)cc3)c(=O)oc2c1	31.8
NS(=O)(=O)c1cccc(NC(=O)c2cc3cc(F)ccc3oc2=O)c1 [16i]	15.2
COc1ccc2oc(=O)c(C(=O)Nc3cccc(S(N)(=O)=O)c3)cc2c1 [16f]	5
NS(=O)(=O)c1cccc(NC(=O)c2cc3ccccc3oc2=O)c1 [16e]	18.9
NS(=O)(=O)c1cccc(NC(=O)c2cc3cc(Br)ccc3oc2=O)c1 [16c]	14.4

(I) NS(=O)(=O)c1ccc(NC(=O)c2cc3cc(Cl)cc(Cl)c3oc2=O)cc1
(II) CCN(CC)c1ccc2cc(C(=O)OCC(=O)Nc3ccc(S(N)(=O)=O)cc3)c(=O)oc2c1
[in] Would you kindly point out which of I and II has the smaller Ki figure? Record your answer as the label of the chosen record.
[out] II
(II: 19.6 nM, I: 105 nM)
